tested on: IGROV1 ovarian; assay: NCI tumour cell line growth inhibition, 48 h
# label = Criterion met if TGI >= 5 µM else Criterion not met

CCCCOCCOCCOC1=C(Cl)C(=O)c2c(O)ccc(O)c2C1=O: Criterion not met
O=C(Nc1ccc(Br)cc1)Nc1cccc(Br)c1: Criterion met
COC(=O)c1ccc2c(c1)C(=O)c1c-2n(CCCCl)c(=O)c2cc(OC)c(OC)cc12: Criterion met
O=S(=O)(NCCCNc1nccc(-c2c(-c3cccc(F)c3)nc3occn23)n1)c1cccc2ccccc12: Criterion met
CCOC(=O)[C@H]1Nc2c(cccc2[N+](=O)[O-])C2c3ccccc3CC21 (stereo not given in full): Criterion met
O=C(CN(/C=C/C(=O)C(F)(F)F)c1ccccc1)c1ccc(F)cc1: Criterion met
O=C(NN1C(=O)C(Cl)C1c1c(O)ccc2ccccc12)c1ccccc1O (stereo not given): Criterion met
Cc1ccc(O)cc1Nc1ccnc2cc(-c3ccccn3)ccc12: Criterion not met
Cc1ccc(NC2=CC(=O)C(=O)c3ccccc32)c(C)c1: Criterion met
Cc1n(Cc2ccc3ccccc3n2)cc[n+]1Cc1ccc2ccccc2c1: Criterion not met
